Quick reference: B-score functional assay of the listed items.
Target: human NTCP (Homo sapiens, UniProt Q14973)
Test: Screening taurocholate uptake assay (96-well, [14C]taurocholate, 10 µM drug)
Details: Prestwick library screen, 10 µM drug; B-score of taurocholate uptake
Structures can show the parent of a compound that is named as a salt.
Please give only the number in your answer, with no unit.

CC1CCc2cc(F)cc3c(=O)c(C(=O)O)cn1c23 (centres unmarked); 2.117

**Q:** B-score functional assay of COc1ccccc1N1CCN(CCCNc2cc(=O)n(C)c(=O)n2C)CC1 [Urapidil hydrochloride] on human NTCP (Homo sapiens, UniProt Q14973)?
**A:** 0.807

**Q:** Subsequent entry: Cc1nnc(NS(=O)(=O)c2ccc(N)cc2)s1
**A:** 1.973

----------
Recorded measurements of B-score functional assay, one per entry
Target: human NTCP (Homo sapiens)
Sequence (Q14973 1-349): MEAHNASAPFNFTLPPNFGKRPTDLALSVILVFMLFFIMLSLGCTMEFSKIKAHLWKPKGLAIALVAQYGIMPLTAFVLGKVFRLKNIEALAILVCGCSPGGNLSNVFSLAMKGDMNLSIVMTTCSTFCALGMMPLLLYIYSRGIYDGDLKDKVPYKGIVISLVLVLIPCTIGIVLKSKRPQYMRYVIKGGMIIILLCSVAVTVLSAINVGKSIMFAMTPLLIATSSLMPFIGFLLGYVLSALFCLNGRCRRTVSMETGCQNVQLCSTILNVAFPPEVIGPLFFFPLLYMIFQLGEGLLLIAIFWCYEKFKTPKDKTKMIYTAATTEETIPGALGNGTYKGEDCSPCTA
Experiment: Screening taurocholate uptake assay (96-well, [14C]taurocholate, 10 µM drug)
Structures can show the parent of a compound that is named as a salt.
Form field (numeric): enter value without unit.

Before answering, review these 3 worked examples.
NC(=O)C(c1ccccc1)(c1ccccc1)[C@@H]1CCN(CCc2ccc3c(c2)CCO3)C1 [Darifenacin hydrobromide]; 2.058
CCCC1C(=O)N2C(N(C)C)=Nc3ccc(C)cc3N2C1=O (stereo not shown) [Azapropazone]; -0.788
C/C(=C(/CCO)SSCC1CCCO1)N(C=O)Cc1cnc(C)nc1N.Cl (stereo not shown) [Fursultiamine Hydrochloride]; 1.116

**Q:** Query: B-score functional assay; subject: N[C@@H]1C[C@H]1c1ccccc1 [Tranylcypromine hydrochloride]
**A:** 0.857

----------
Molecular target: human NTCP (Homo sapiens, UniProt Q14973)
Test: Screening taurocholate uptake assay (96-well, [14C]taurocholate, 10 µM drug)
Would you mind labelling by Ranking score? At or over 600 is yes, under is no.

CCCCC(=O)N(Cc1ccc(-c2ccccc2-c2nnn[nH]2)cc1)[C@H](C(=O)O)C(C)C [Valsartan]; yes
CC1COc2c(N3CCN(C)CC3)c(F)cc3c(=O)c(C(=O)O)cn1c23 (centres unmarked) [Ofloxacin]; yes
CCCC1C(=O)N2C(N(C)C)=Nc3ccc(C)cc3N2C1=O (centres unmarked) [Azapropazone]; no

**Q:** I'd appreciate it if you could say whether C/C(=C(/CCO)SSCC1CCCO1)N(C=O)Cc1cnc(C)nc1N.Cl (centres unmarked) [Fursultiamine Hydrochloride] has Ranking score at least equal to 600.
**A:** yes

----------
Examples of compounds with documented Ranking score follow.
Molecular target: human NTCP (Homo sapiens, UniProt Q14973)
Assay: Screening taurocholate uptake assay (96-well, [14C]taurocholate, 10 µM drug)
Conditions: ranking over the functional and the binding screening assay
Where a name gives a salt, the structure may show the parent alone.
Reply: number alone, nothing else.

C/C=C(\C)C(=O)O[C@H]1[C@H](OC(C)=O)[C@@]2(CO)C(CC1(C)C)C1=CC[C@@H]3[C@@]4(C)CC[C@H](O[C@@H]5O[C@H](C(=O)O)[C@@H](O[C@@H]6O[C@H](CO)[C@@H](O)[C@H](O)[C@H]6O)[C@H](O)[C@H]5O[C@@H]5O[C@H](CO)[C@@H](O)[C@H](O)[C@H]5O)[C@H](CO)C4CC[C@@]3(C)[C@@]1(C)C[C@H]2O (stereo partly drawn); 8.485
CS(=O)(=O)OCCCCOS(C)(=O)=O; 269.796

**Q:** Name the reported Ranking score value associated with the compound O=C(O)CCC(=O)Nc1ccc(S(=O)(=O)Nc2nccs2)cc1
**A:** 258.147

**Q:** Please answer likewise for C#C[C@]1(OC(C)=O)CC[C@H]2[C@@H]3CCC4=C[C@@H](OC(C)=O)CC[C@@H]4[C@H]3CC[C@@]21C [Ethynodiol diacetate]
**A:** 238.458

**Q:** Now consider CC[C@H](C)C(=O)O[C@H]1C[C@H](O)C=C2C=C[C@H](C)[C@H](CC[C@@H](O)C[C@@H](O)CC(=O)O)[C@H]21 .
**A:** 245.632

**Q:** Please do the same for CN1CC2c3ccccc3Oc3ccc(Cl)cc3C2C1 (stereo not drawn) [Asenapine maleate] as well.
**A:** 127.491

----------
Measured B-score functional assay values are reported for all entries that follow.
Target: human NTCP (Homo sapiens, UniProt Q14973)
Assay: Screening taurocholate uptake assay (96-well, [14C]taurocholate, 10 µM drug)
Details: Prestwick library screen, 10 µM drug; B-score of taurocholate uptake
Lab note: jot down the number only; don't add units.

Cc1cc(NC(=O)C2=C(O)c3ccccc3S(=O)(=O)N2C)no1; 1.391

**Q:** For the record CN(C)/N=N/c1[nH]cnc1C(N)=O , what value of B-score functional assay is listed for human NTCP (Homo sapiens, UniProt Q14973)?
**A:** 0.084

**Q:** Follow-up item: CC[C@@H]1C(=O)OC[C@@H]1Cc1cncn1C [Pilocarpine nitrate]
**A:** 0.794

**Q:** # repeat for Nc1ccc(C(=O)NCC(=O)O)cc1
**A:** 1.44

**Q:** Field entry: CCOC(=O)C(C)(C)Oc1ccc(Cl)cc1 [Clofibrate]
**A:** 1.746

**Q:** Field entry: CCC1(C)CC(=O)NC1=O (stereo not shown) [Ethosuximide]
**A:** 1.817

**Q:** Try this compound too: COc1cc(NC(C)CCCN)c2ncccc2c1 (stereo not shown) [Primaquine diphosphate]
**A:** 4.393

----------
Assay: in vitro
Settings: human, U2OS-HA-hNTCP cells
property: viability at 2 h, 100 µM
Form field: result (number plus unit)

Use these answered entries as a reference point.
CC(C)c1ccc2oc3nc(N)c(C(=O)O)cc3c(=O)c2c1; 92.7%
COc1cc(C(=O)NS(=O)(=O)c2ccccc2C)ccc1Cc1cn(C)c2ccc(NC(=O)OC3CCCC3)cc12; 77.7%

Could you now look at the following compound, please?
**Q:** Name the recorded viability at 2 h, 100 µM for O=C(O)c1ccccc1Nc1cccc(C(F)(F)F)c1 .
**A:** 107%

----------
Target: human NTCP (Homo sapiens, UniProt Q14973)
Experiment: Screening taurocholate uptake assay (96-well, [14C]taurocholate, 10 µM drug)
Conditions: combined ranking from functional and binding assay B-scores
Counter-ions that a name gives are not always drawn.
property: Ranking score
Please state the value as a number alone, without comment.

**Q:** Which Ranking score value belongs to CCN(CC)C(C)C(=O)c1ccccc1 (stereo not shown) [Amfepramone hydrochloride] ?
**A:** 1034.63

**Q:** Now the same for CC[C@H]1OC(=O)[C@H](C)[C@@H](O[C@H]2C[C@@](C)(OC)[C@@H](O)[C@H](C)O2)[C@H](C)[C@@H](O[C@@H]2O[C@H](C)C[C@H](N(C)C)[C@H]2O)[C@](C)(O)C[C@@H](C)C(=O)[C@H](C)[C@@H](O)[C@]1(C)O
**A:** 1129.71

**Q:** Entry to check: NS(=O)(=O)Cc1noc2ccccc12 [Zonisamide]
**A:** 1038.21

**Q:** CCn1cc(C(=O)O)c(=O)c2cc(F)c(N3CCNCC3)nc21 ?
**A:** 1072.03

**Q:** For C[C@]12CC[C@@H]3c4ccc(O)cc4CC[C@H]3[C@@H]1CCC2=O then?
**A:** 855.9

**Q:** Here is the next molecule: C[N+]12CCC(CC1)C(OC(=O)C(O)(c1ccccc1)c1ccccc1)C2 (stereo not shown) [Clidinium bromide]
**A:** 877.232

----------
Target: human NTCP (Homo sapiens, UniProt Q14973)
Experiment: Screening fluorescent competitive Myrcludex B-FITC binding assay (96-well, 10 µM drug)
Where a name gives a salt, the structure may show the parent alone.
property: B-score binding assay
Form: value (number only, do not type unit).

CCCCC(=O)N(Cc1ccc(-c2ccccc2-c2nnn[nH]2)cc1)[C@H](C(=O)O)C(C)C; 0.016
O=C(NCCNCC(O)COc1ccc(O)cc1)N1CCOCC1 (stereo not shown) [Xamoterol hemifumarate]; -0.721
C=CCC1(CC(C)C)C(=O)NC(=O)NC1=O; 2.017
C[C@]12CCC(=O)C(O)=C1CC[C@@H]1[C@@H]2CC[C@]2(C)C(=O)CC[C@@H]12; -0.147
CC1COc2c(N3CCN(C)CC3)c(F)cc3c(=O)c(C(=O)O)cn1c23 (stereo not shown); 0.588

**Q:** Requested read-out B-score binding assay, target or system human NTCP (Homo sapiens, UniProt Q14973), entry C[C@]12CC[C@H]3[C@@H](CCC4=CC(=O)CC[C@@H]43)[C@@H]1CC[C@@H]2O
**A:** 0.982

**Q:** What about COc1cc2nc(N3CCN(C(=O)C4COc5ccccc5O4)CC3)nc(N)c2cc1OC (stereo not shown) [Doxazosin mesylate] ?
**A:** 0.211

**Q:** Now the compound Cc1c(N)c(=O)n(-c2ccccc2)n1C
**A:** 0.217

**Q:** // same read-out, input: Oc1ccc2c3c1O[C@H]1[C@@H](O)CC[C@@]4(O)[C@@H](C2)N(CC2CCC2)CC[C@]314 [Nalbuphine hydrochloride]
**A:** -0.132

**Q:** Same lookup for O=P1(N(CCCl)CCCl)NCCCO1 (stereo not shown) [Cyclophosphamide] , please.
**A:** 1.227

**Q:** Would you kindly repeat that for C[C@]12COC(=O)C[C@@H]1CC[C@@H]1[C@@H]2CC[C@@]2(C)[C@H]1CC[C@]2(C)O ?
**A:** 1.484

**Q:** Queued: C[C@]12CC[C@@H](O)C[C@@H]1CC[C@@H]1[C@@H]2CC[C@]2(C)C(=O)CC[C@@H]12
**A:** 1.069

**Q:** Try C[C@]12Cc3c[nH]nc3C[C@@H]1CC[C@@H]1[C@@H]2CC[C@@]2(C)[C@H]1CC[C@]2(C)O next.
**A:** -2.248
